target: BRD2 (His-Brd2(60-472)) (Homo sapiens (Human), UniProt P25440)
Sequence (P25440 60-472): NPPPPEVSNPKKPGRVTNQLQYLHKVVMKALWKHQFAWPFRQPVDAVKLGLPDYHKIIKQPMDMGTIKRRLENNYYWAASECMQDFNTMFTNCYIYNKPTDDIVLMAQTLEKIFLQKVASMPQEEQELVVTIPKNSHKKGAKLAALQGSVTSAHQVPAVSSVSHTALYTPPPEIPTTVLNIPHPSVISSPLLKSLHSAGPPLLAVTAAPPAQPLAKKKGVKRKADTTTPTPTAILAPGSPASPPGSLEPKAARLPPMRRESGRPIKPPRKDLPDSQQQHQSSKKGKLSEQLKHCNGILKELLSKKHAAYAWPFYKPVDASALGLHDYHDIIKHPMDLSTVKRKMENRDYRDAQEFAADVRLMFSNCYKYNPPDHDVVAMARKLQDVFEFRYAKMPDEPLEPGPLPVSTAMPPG
outcomeMeasure: pIC50
The meaning of pIC50 here: minus log10 of the concentration in molar units.

Reference set (6 entries):
compound	testedTarget	pIC50
Cc1cc(N2C(=O)c3nc(C4CC4)n(C(C)(C)C)c3C2c2ccc(Cl)cc2)cn(C)c1=O (stereo not shown) [Example 33]	BRD2 (His-Brd2(60-472)) (Homo sapiens (Human), UniProt P25440)	7.19
Cc1cc(N2C(=O)c3nc(C4=CCN(C(=O)OC(C)C)CC4)n(C(C)C)c3C2c2ccc(Cl)cc2)cn2c(C)nnc12 (stereo not shown) [Example 71]	BRD2 (His-Brd2(60-472)) (Homo sapiens (Human), UniProt P25440)	7.48
Cc1cc(N2C(=O)c3nc(C4=CCOCC4)n(C(C)C)c3C2c2ccc(Cl)cc2)nn2c(C)nnc12 (stereo not shown) [Example 100]	BRD2 (His-Brd2(60-472)) (Homo sapiens (Human), UniProt P25440)	7.20
Cc1cc(N2C(=O)c3nc(C4=CC(C)(C)NC(C)(C)C4)n(C(C)C)c3C2c2ccc(Cl)cc2)cn2c(CF)nnc12 (stereo not shown) [Example 90]	BRD2 (His-Brd2(60-472)) (Homo sapiens (Human), UniProt P25440)	7.17
Cc1cc(N2C(=O)c3nc(C4=CCN(C(=O)NC(C)(C)C)CC4)n(C(C)C)c3C2c2ccc(Cl)cc2)cn2c(C)nnc12 (stereo not shown) [Example 72]	BRD2 (His-Brd2(60-472)) (Homo sapiens (Human), UniProt P25440)	7.64
CCCn1c(-c2cc(OC)ncc2F)nc2c1C(=O)N(c1cc(C)c(=O)n(C)c1)C2c1ccc(Cl)cc1 (stereo not shown) [Example 36]	BRD2 (His-Brd2(60-472)) (Homo sapiens (Human), UniProt P25440)	6.79

# lookup: CCn1c(-c2ccc(OC)nc2)nc2c1C(=O)N(c1cc(C)c(=O)n(C)c1)C2c1ccc(Cl)cc1 (stereo not shown) [Example 38] on BRD2 (His-Brd2(60-472)) (Homo sapiens (Human), UniProt P25440), pIC50 = 7.03

----------
target: CREBBP bromodomain (His-CREBBP(1081-1197)) (Homo sapiens (Human)); assay: AlphaScreen in-vitro binding assay for CREBBP; conditions: single determination or n ≧ 2 independent determinations, read-out: Biochemical IC50 CREBBP
outcomeMeasure: pIC50
The meaning of pIC50 here: minus log10 of the concentration in molar units.

Reference set (5 entries):
molecule	numericResult
Cc1cc(N2C(=O)c3nc(C)n(C(C)C)c3C2c2ccc(Cl)cc2)nn2c(C)nnc12 (racemic)	4.56
Cc1cc(N2C(=O)c3nc(C4=CCN(C(=O)OCC(C)C)CC4)n(C(C)C)c3C2c2ccc(Cl)cc2)cn2c(C)nnc12 (centres unmarked)	5.21
Cc1cc(N2C(=O)c3nc(N4CCOCC4)n(C)c3C2c2ccc(Cl)cc2)cn(C)c1=O (centres unmarked)	5.62
COc1ncccc1-c1nc2c(n1C(C)C)[C@@H](c1ccc(Cl)cc1)N(c1cc(OC)c3nnn(C)c3c1)C2=O	5.05
COc1ncc(-c2nc3c([nH]2)[C@@H](c2ccc(Cl)cc2)N(c2cc(OC)c4nnc(C)n4c2)C3=O)c(OC)n1	4.78

For `COc1ncccc1-c1nc2c([nH]1)[C@@H](c1ccc(Cl)cc1)N(c1cc(C)c3nnc(C)n3c1)C2=O` the molecule record lists pIC50 as 5.76

For `CCn1c(-c2ccc(OC)nc2)nc2c1C(=O)N(c1cc(C)c(=O)n(C)c1)[C@@H]2c1ccc(Cl)cc1` the molecule record lists pIC50 as 6.04

For `Cc1cc(N2C(=O)c3nc(C4=CCOCC4)n(C(C)C)c3[C@H]2c2ccc(Cl)cc2)cc2c1nnn2C` the molecule record lists pIC50 as 5.82

For Cc1cc(N2C(=O)c3nc(C4CCN(CC(C)(C)C)CC4)n(C(C)C)c3C2c2ccc(Cl)cc2)cn2c(C)nnc12 (centres unmarked) the molecule record lists pIC50 as 5.55

For Cc1cc(N2C(=O)c3nc(C4=CCN(C)CC4)n(C(C)C)c3C2c2ccc(Cl)cc2)cc2c1nnn2C (centres unmarked) the molecule record lists pIC50 as 5.37

----------
molecular target: CREBBP bromodomain (His-CREBBP(1081-1197)) (Homo sapiens (Human)); assay: AlphaScreen in-vitro binding assay for CREBBP; details: single determination or n ≧ 2 independent determinations, read-out: Biochemical IC50 CREBBP
outcomeMeasure: pIC50
The meaning of pIC50 here: minus log10 of the concentration in molar units.

Reference set (3 entries):
molecule	pIC50
Cc1cc(N2C(=O)c3nc(C4CCOC4)n(C(C)C)c3[C@H]2c2ccc(Cl)cc2)cc2c1nnn2C (stereo partly shown)	6.01
CCn1c(C)nc2c1C(=O)N(c1cc(C)c3nnn(C)c3c1)[C@@H]2c1ccc(Cl)cc1	5.58
Cc1cc(N2C(=O)c3nc(C4=CCOCC4)n(C(C)C)c3[C@H]2c2ccc(Cl)cc2)cn2c(C)nnc12	5.46

In the following, a different molecule is considered.
# lookup: COc1cc(N2C(=O)c3nc(C4=CCOCC4)n(C(C)C)c3C2c2ccc(Cl)cc2)cc2c1nnn2C (stereo not shown) on CREBBP bromodomain (His-CREBBP(1081-1197)) (Homo sapiens (Human)), pIC50 = 4.66

----------
tested on: K-562 cells
outcomeMeasure: log10 GI50 (log10 of the value in nM)
Each number you see is log10 of GI50, and the unit inside the log is nM.

Reference set (4 entries):
molecule	testedTarget	outcomeMeasure	numericResult
Cc1cc(N2C(=O)c3nc(C4=CCOCC4)n(C(C)C)c3C2c2ccc(Cl)cc2)cn2c(CF)nnc12 (stereo not drawn)	K-562 cells	log10 GI50	2.24
Cc1cc(N2C(=O)c3nc(C4CC4)n(C4COC4)c3C2c2ccc(Cl)cc2)cc2c1nnn2C (stereo not drawn)	K-562 cells	log10 GI50	1.93
COc1ccc(-c2nc3c(n2C)C(c2ccc(Cl)cc2)N(c2cc(C)c4nnc(C)n4c2)C3=O)cn1 (stereo not drawn)	K-562 cells	log10 GI50	2.75
COc1ncccc1-c1nc2c(n1C(C)C)C(c1ccc(Cl)cc1)N(c1cc(C)c3nnn(C)c3n1)C2=O (stereo not drawn)	K-562 cells	log10 GI50	1.75

# lookup: CCn1c(-c2ccc(OC)nc2)nc2c1C(=O)N(c1cc(C)c(=O)n(C)c1)C2c1ccc(Cl)cc1 (stereo not drawn) on K-562 cells, log10 GI50 = 2.43

# lookup: Cc1cc(N2C(=O)c3nc(C4=CCN(C)CC4)n(C(C)C)c3C2c2ccc(Cl)cc2)cn2c(C)nnc12 (stereo not drawn) on K-562 cells, log10 GI50 = 2.76

----------
Please consider the recorded log10(GI50) for K-562 cells in what follows.
Each number you see is log10 of GI50, and the unit inside the log is nM.

# lookup: Cc1cc(N2C(=O)c3nc(C4=CCOC4)n(C(C)C)c3C2c2ccc(Cl)cc2)cn2c(C)nnc12 (centres unmarked) on K-562 cells, log10(GI50) = 2.52

# lookup: COc1ncc(-c2nc3c(n2C(C)C)C(c2ccc(Cl)cc2)N(c2cc(C)c4nnc(C)n4c2)C3=O)c(OC)n1 (centres unmarked) on K-562 cells, log10(GI50) = 2.51

----------
system: K-562 cells; assay: Cell growth inhibition assay (CellTiter-Glo), K-562; conditions: K-562 cells, total growth inhibition, CellTiter-Glo;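 note: cellular ATP measured by luminescence after 4 days of exposure, 3-fold dilution series from 10 µM, DMSO vehicle-treated cells define 100%, cell-free medium wells −100%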
outcomeMeasure: K-562 TGI

compound	result
Cc1cc(N2C(=O)c3nc(C4=CCCN(C)C4)n(C(C)C)c3[C@H]2c2ccc(Cl)cc2)cn2c(C)nnc12 [Example 85]	>10 µM
Cc1nc2c([nH]1)C(c1ccc(Cl)cc1)N(c1cc(C)c3nnn(C)c3c1)C2=O (stereo not shown) [Example 1]	>10 µM
Cc1cc(N2C(=O)c3nc(C4CCOCC4)n(C(C)C)c3[C@H]2c2ccc(Cl)cc2)cn2c(C)nnc12 [Example 87]	>10 µM

In the following, a different compound is considered.
For COc1ccc(-c2nc3c(n2C(C)C)[C@@H](c2ccc(Cl)cc2)N(c2cc(OC)c4nnn(C)c4c2)C3=O)cn1 [Example 114] the compound record lists K-562 TGI as >10 µM

----------
molecular target: CREBBP bromodomain (His-CREBBP(1081-1197)) (Homo sapiens (Human), UniProt Q92793); assay: AlphaScreen in-vitro binding assay for CREBBP; details: single determination or n ≧ 2 independent determinations, read-out: Biochemical IC50 CREBBP
Sequence (Q92793 1081-1197): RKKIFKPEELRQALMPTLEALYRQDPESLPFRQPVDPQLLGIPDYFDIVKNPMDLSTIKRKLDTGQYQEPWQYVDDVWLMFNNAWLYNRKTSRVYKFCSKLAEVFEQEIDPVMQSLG
outcomeMeasure: IC50 (µM)
Respond numerically; units are µM and should not be typed.

Reference set (2 entries):
compound	IC50 / µM
COc1cc(N2C(=O)c3nc(C4=CCOCC4)n(C(C)C)c3[C@H]2c2ccc(Cl)cc2)cc2c1nnn2C	17.9
Cc1cc(N2C(=O)c3nc(-c4nccs4)n(C(C)C)c3[C@H]2c2ccc(Cl)cc2)cn(C)c1=O	0.455

In the following, a different compound is considered.
For Cc1cc(N2C(=O)c3nc(C4CCOCC4)n(C(C)C)c3C2c2ccc(Cl)cc2)cn2c(C)nnc12 (stereo not shown) the compound record lists IC50 as 3.8
